Values were extracted from paper PMC9482650.

# targetUnderTest: SCRIB_2, Q14160
# Sequence (Q14160 857-960): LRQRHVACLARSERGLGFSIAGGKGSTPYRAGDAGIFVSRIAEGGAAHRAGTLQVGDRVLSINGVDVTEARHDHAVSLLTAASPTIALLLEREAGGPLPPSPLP
# assayProcedure: holdup assay
# Parameters: key: below the threshold = too weak to quantify, mostly under pKd 3.1 to 4
# condition: plain residues with an end cap or a label only (N-terminal biotin on a linker: ado-ado)
testReadout: pKd

DPAESMESLV [PTPRG, P23470] : 3.68
MQHQRTHTRV [ZSCAN30, Q86W11] : 3.79
NISYRRESAI [KCNJ4, P48050] : 3.69
TISFTQTSQF [SLC1A1, P43005] : below the threshold
IDESKKEWLI [CNTNAP2, Q9UHC6] : below the threshold

Retrieve pKd measured for TRKRSGEAAV [PFKM, P08237] and print it.
below the threshold

Retrieve pKd measured for SLNANEVEWF [RNF130, Q86XS8] and print it.
3.57

Retrieve pKd measured for SVTSERETNI [SLC16A7, O60669] and print it.
3.69

Retrieve pKd measured for PSVGSKKTVL [REELD1, A0A1B0GV85] and print it.
below the threshold

Retrieve pKd measured for LPAVCYDIDI [PTTG2, Q9NZH5] and print it.
below the threshold

Retrieve pKd measured for LAHVKHKEQI [AQP3, Q92482] and print it.
below the threshold

Retrieve pKd measured for QKAPTKEFYA [SDC2, P34741] and print it.
below the threshold

Retrieve pKd measured for ELSATVTTDC [TRIP6, Q15654] and print it.
below the threshold

Retrieve pKd measured for SPDRDRESIV [SCN5A, Q14524] and print it.
below the threshold

Retrieve pKd measured for SRSVVESDEL [MYPN, Q86TC9] and print it.
below the threshold

Retrieve pKd measured for EDLEDEWEVI [TECPR2, O15040] and print it.
below the threshold
